The origin of these recorded values is patent US8586082B2.

experimental.details: Bioavailability, comparative study in dogs (150 mg/kg)
Type: in vivo
settings: dog, in vivo, oral, Beagle dogs, crossover, suspension, geometric means, read-out: AUC (0-24)
property: AUC(0-t) (ng·h/mL)
Note: unit ng·h/mL is implicit; provide only the numeric part.

input: Fill in: AUC(0-t) of O=C(NC[C@H]1CN(c2ccc(N3CCOCC3=O)cc2)C(=O)O1)c1ccc(Cl)s1 [Comparative Formulation 1.1] is ___
output: 12200

----------
experimental.details: Solubility in water of active ingredient (I)
Format: physicochemical
settings: 25° C., crystal modification I
property: solubility

input: Fill in: solubility of "O=C(NC[C@H]1CN(c2ccc(N3CCOCC3=O)cc2)C(=O)O1)c1ccc(Cl)s1" is ___
output: ~7 µg/mL
